- Tested on: Bifidobacterium longum subsp. longum
- protocol_notes: growth AUC relative to DMSO control (median of replicates) (fraction); higher = more growth (less inhibition), active = hit call of the paper;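 active = AUC reduced over 20% with Padj below 0.05 in at least 2 of 3 replicates; inactive = otherwise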
- measurement_setup: 20 µM; 24 h
API: response.call in active, inactive

CCCCCCCCCCCCCN1CC(C)OC(C)C1 (stereo unspecified) = inactive
C=C(C)[C@H]1Cc2c(ccc3c2O[C@@H]2COc4cc(OC)c(OC)cc4[C@@H]2C3=O)O1 = inactive

With those in mind, consider the next compound.
Name the outcome recorded for CCCCCCCCSC(=O)Oc1cc(Cl)nnc1-c1ccccc1 in the assay.
inactive

###

- Test system: Bacteroides caccae
- protocol_notes: growth AUC relative to DMSO control (median of replicates) (fraction); higher = more growth (less inhibition), active = hit call of the paper
- measurement_setup: 20 µM; 24 h
experimental_endpoint: growth AUC
Answer with a bare number; do not write a unit.

CCOC(=O)/C=C(C)/C=C/C[C@@H](C)CCCC(C)C = 0.985
CCCC1COC(Cn2cncn2)(c2ccc(Cl)cc2Cl)O1 (configuration not stated) = 0.952

Item CC1(C)C(C=C(Cl)Cl)C1C(=O)OCc1cccc(Oc2ccccc2)c1 (mixture of isomers) has what recorded growth AUC?
0.991

Request: CNC(=O)Oc1cccc2c1OC(C)(C)C2O (configuration not stated)
1.01

Field entry: O=C(O)COc1ccc(Cl)cc1Cl
1.03

Repeat for the following molecule: CNC(=O)O/N=C(\C)C(C)S(C)(=O)=O (configuration not stated)
0.99

Input O=[N+]([O-])NC1=NCOCN1Cc1cnc(Cl)s1
0.994

Thanks! And COc1cc(OC)nc(NC(=O)NS(=O)(=O)c2ncccc2C(F)(F)F)n1 ?
1.02

Now try Cc1ccccc1C(=O)Nc1cccc(OC(C)C)c1 .
1.01

Try the molecule CCCCCCCCn1sccc1=O
0.924

Also need CN(C)S(=O)(=O)N(SC(F)(Cl)Cl)c1ccccc1 , thanks.
1.01

Cool, now CCCOP(=S)(OCCC)SCC(=O)N1CCCCC1C (configuration not stated)
0.956

Ok, now CCNc1nc(Cl)nc(NC(C)(C)C)n1
0.987

Query O=C(O)C(F)(F)C(F)(F)C(F)(F)C(F)(F)C(F)(F)C(F)(F)C(F)(F)C(F)(F)C(F)(F)F next
0.977

###

- System: Bacteroides stercoris
- protocol_notes: growth AUC relative to DMSO control (median of replicates) (fraction); higher = more growth (less inhibition), active = hit call of the paper
- measurement_setup: 20 µM; 24 h
# growth AUC listing for each entry below

# example entries with known answers
CCc1ccc(C(=O)NN(C(=O)c2cc(C)cc(C)c2)C(C)(C)C)cc1 = 0.875 (inactive)
O=c1oc2ccccc2c(O)c1C1CCCc2ccccc21 (stereo unspecified) = 1.09 (inactive)
CCOP(=O)(Sc1ccccc1)Sc1ccccc1 = 0.795 (inactive)

Fill in the blank: the reported growth AUC of S=C1NCCN1 is ____.
1.13 (inactive)

Please answer likewise for CNC(=O)/C(=N\OC)c1ccccc1Oc1ccccc1
0.953 (inactive)

Also need COP(=S)(OC)Oc1ccc(Sc2ccc(OP(=S)(OC)OC)cc2)cc1 , thanks.
1.08 (inactive)

###

- System: Odoribacter splanchnicus
- protocol_notes: growth AUC relative to DMSO control (median of replicates) (fraction); higher = more growth (less inhibition), active = hit call of the paper
- measurement_setup: 20 µM; 24 h
Label scheme for growth AUC: lower than 1 is NOT MET, 1 and above is MET.

CNC(=O)O/N=C(\C)C(C)S(C)(=O)=O (configuration not stated) = MET
O=c1oc2ccccc2c(O)c1C1CCCc2ccccc21 (configuration not stated) = NOT MET
CCOP(=O)(OCC)Oc1ccc([N+](=O)[O-])cc1 = MET
C[C@@H](Oc1ccc(Oc2nc3ccc(Cl)cc3o2)cc1)C(=O)O = MET
CC1(C)C(C=C(Cl)Cl)C1C(=O)OC(C#N)c1ccc(F)c(Oc2ccccc2)c1 (mixture of isomers) = NOT MET

Threshold query (growth AUC >= 1) on COC(=O)NS(=O)(=O)c1ccc(N)cc1
MET

Note, next up: Cc1nnc(-c2ccccc2)c(=O)n1N
MET

// next record CC(C)N(C(=O)CCl)c1ccccc1
NOT MET
